Reference source: patent US20170304288A1

- System: L. major promastigotes over-expressing LmMetAP1
- assay-overview: Leishmania major luciferase assay, promastigotes over-expressing LmMetAP1
- Assay type: cell-based
- details: read-out: L. major promastigotes over-expressing LmMetAP1 EC50
measurement-kind: EC50 (µM)

- given-smiles: "O=C(N/N=C/c1c(O)ccc2ccccc12)c1ccncc1"
  value-qualifier: ">"
  endpoint-value: 10
- given-smiles: "Cc1nc(-c2ccccn2)nc(N(C)Cc2ccccc2)c1Cl"
  value-qualifier: "="
  endpoint-value: 5
- given-smiles: "Oc1ccccc1/C=N/Nc1ncnc2sc3c(c12)CCCC3"
  value-qualifier: "="
  endpoint-value: 9

###

- assay-overview: Solubility in various solvents, shaker method
- Type: physicochemical
- details: water, thermodynamic from solid; read-out: Mean Solubility ± SD
measurement-kind: solubility at 72 h (µg/mL)

- given-smiles: "Oc1c(Br)cc(Cl)c2cccnc12"
  measurement-kind: "solubility at 72 h"
  endpoint-value: 70
